Test system: NIH3T3 cells overexpressing cystatin alpha
Protocol Summary: MTT cell viability, cystatin alpha overexpressing cells vs parental line
Assay type: cell-based, mouse
Study Conditions: cystatin alpha high-expressing cells / parental cell line, 3 to 4 days
Non-standard residues stand in square brackets, D forms with d. Residues, ends and D or L forms follow the SMILES beside them. Nle = CCCC[C@H](N)C(=O)O
Quantity Kind: logarithmic value of ratio of IC40 values

Study these solved cases before continuing.
COC(=O)[C@@]1(O)C[C@H]2O[C@]1(C)n1c3ccccc3c3c4c(c5c6ccccc6n2c5c31)C(=O)NC4 [K252a] = −0.10
CCCC[C@@H](C)/C=C(C)/C=C(\C)C(=O)NC1=C[C@@](O)(/C=C/C=C/C=C/C(=O)NC2=C(O)CCC2=O)[C@@H]2O[C@@H]2C1=O [Manumycin, manumycin] = −0.19
COC[C@H]1OC(=O)c2coc3c2[C@@]1(C)C1=C(C3=O)[C@@H]2CCC(=O)[C@@]2(C)C[C@H]1OC(C)=O [Wortmannin, wortmannin] = 0.45

Let us move to another entry and its logarithmic value of ratio of IC40 values.
Fill in: logarithmic value of ratio of IC40 values of CCCC[C@@H](C=O)NC(=O)[C@H](CC(C)C)NC(=O)[C@H](CC(C)C)NC(C)=O [ALLN] (Ac-Leu-Leu-[Nle]-aldehyde) is ___
0.07
